- system: Albumin (Bos taurus)
- protocolSummary: bovine serum albumin binders on microarray, profiling panel, artefact control for SMM control protein annotation, biochemical, small-molecule microarray, Alexa647 label, 635/667 nm fluorescence (AID 1118);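 note: score merges 667 nm emission intensity and signal-to-noise per printed compound spot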
- measurementContext: BSA-A647 binding, fluorescence 635 nm, higher = more signal

- structureNotation: "COC(=O)CC=C[C@H](C)[C@@H](OCc1cccc(Br)c1)[C@@H](C)[C@H](OC)C1CCCCC1"
  composite z-score: -1.15
- structureNotation: "O=C1C[C@@H](O)[C@@H](O)[C@@H]2[C@@H]3C(=O)N(C[C@@H]4CCCO4)C(=O)[C@@H]3CC[C@H]12"
  composite z-score: 0.225
- structureNotation: "O=C1[C@H]2[C@H]3[C@H](O)[C@H](O)CC(=NOC[C@@H](O)COCc4ccco4)[C@H]3CC[C@H]2C(=O)N1C[C@@H]1CCCO1"
  composite z-score: -0.483
- structureNotation: "Cc1ccc(S(=O)(=O)N[C@H]2COC(=O)CC=C[C@@H](C)COC(=O)CC=C[C@@H]2C)cc1"
  composite z-score: -1.17

====

Quick reference for z-score among some compounds
- protocolSummary: S. cerevisiae RM11-1a growth modifiers, primary screen, strain RM11-1a, OD600, basal, 24 h (AID 1177);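 note: cultures grown under basal conditions with no added stressor; test concentration not given here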
- measurementContext: OD600, 24 h, higher = more signal, called active from +8 up or from −8 down

- structureNotation: "CO[C@@H]1COC(=O)CC=C[C@H](C)[C@H](OC)COC(=O)[C@H](C)NC(=O)CC=C[C@H]1C"
  z-score: -0.363
- structureNotation: "C[C@H]1COC(=O)[C@@H]2CCCN2C(=O)[C@@H](C)COC(=O)[C@H](Cc2ccccc2)NC1=O"
  z-score: -0.231
- structureNotation: "Cc1ccc(S(=O)(=O)N[C@H]2COC(=O)CC=C[C@H](C)[C@@H](NS(=O)(=O)c3ccc(C)cc3)COC(=O)CC=C[C@@H]2C)cc1"
  z-score: 1.34
- structureNotation: "CSCC[C@@H]1NC(=O)CC=C[C@@H](C)COC(=O)[C@@H](C)COC1=O"
  z-score: -0.24
- structureNotation: "COC(=O)CC=C[C@@H](C)[C@@H](C=NOC[C@H]1O[C@H](c2ccccc2)C=C[C@@H]1Oc1ccc(OC)cc1)NS(=O)(=O)c1ccc(C)cc1"
  z-score: 0.0674
- structureNotation: "O=C1[C@H]2[C@H]3[C@H](O)[C@H](O)CC(=NOC[C@@H](O)COCc4ccco4)[C@H]3CC[C@H]2C(=O)N1c1ccc(F)cc1F"
  z-score: -3.71
- structureNotation: "O=C(NN=C1C[C@@H](O)[C@@H](O)[C@@H]2[C@@H]3C(=O)N(C[C@@H]4CCCO4)C(=O)[C@@H]3CC[C@@H]12)OCc1ccccc1"
  z-score: -1.49
- structureNotation: "C#CCCCON=C1C[C@@H](O)[C@@H](O)[C@@H]2[C@@H]3C(=O)N(c4cccc(Oc5ccccc5)c4)C(=O)[C@@H]3CC[C@H]12"
  z-score: -0.0064
- structureNotation: "C#CCCCON=C1C[C@@H](O)[C@@H](O)[C@@H]2[C@@H]3C(=O)N(CCC(=O)OCC)C(=O)[C@@H]3CC[C@H]12"
  z-score: -1.71
- structureNotation: "C#CCCCON=C1[C@H]2CCn3c(=O)n(C)c(=O)n3[C@H]2[C@H](O)[C@@H]2O[C@H]12"
  z-score: 0.956
- structureNotation: "COC(=O)[C@@H]1CC[C@H](C)[C@@H](c2ccc(C)cc2)N1C(=O)c1ccc(C=NO[C@H](C)c2cn([C@@H]3COC[C@H]3O)nn2)cc1"
  z-score: 1.17
- structureNotation: "CC(C)CON=C1C[C@@H](O)[C@@H](O)[C@@H]2[C@@H]3C(=O)N(c4cccc(Oc5ccccc5)c4)C(=O)[C@@H]3CC[C@@H]12"
  z-score: -1.86
- structureNotation: "COc1ccc(O[C@H]2C=C[C@@H](c3ccccc3)O[C@@H]2CON=CC[C@@H]2C=C[C@H](OC(C)=O)[C@@H](COC(C)=O)O2)cc1"
  z-score: 1.34
- structureNotation: "CC(C)(C)N1C(=O)[C@H]2[C@H]3[C@H](O)[C@H](O)CC(=NOCc4ccccc4)[C@H]3CC[C@H]2C1=O"
  z-score: -0.786
- structureNotation: "CCOC(=O)C1=NO[C@@]2(C=C(Br)C3(OCCCO3)[C@H]3O[C@H]32)C1"
  z-score: 0.227
